# Tested on: Agrobacterium sp.
# Protocol: In vitro antibacterial activity against Agrobacterium radiobacter pv. tumefaciens assessed as inhibition at 0.1 %
# Type: functional
Experimental Endpoint: diameter of the inhibition zone (DIZ) (cm)
Numbers only, in cm.

Answered cases to consult:
Cc1cc2ncn(Cc3ccccc3C)c2cc1C ... 3
Cc1cccc(Cn2cnc3cc(C)c(C)cc32)c1 ... 3
Cc1ccccc1Cn1c(/N=C/c2ccc([N+](=O)[O-])o2)nc2ccccc21 ... 3
Cc1cccc(Cn2c(/N=C/c3ccc([N+](=O)[O-])o3)nc3ccccc32)c1 ... 3
Cc1cc2nc(N)n(Cc3cccc(Cl)c3)c2cc1C ... 2

Q: What value of diameter of the inhibition zone (DIZ) has been recorded for this entry: Cc1cc2ncn(Cc3cccc(F)c3)c2cc1C
Result: 3
